Here, each record is paired with measured HepG2 viability signal, 3 uM, repeat 2 data.
tested on: HepG2-A16-CD81EGFP cells; conditions: nominal 3 uM (10 mM stock); 4.5 uM for 15 mM, 3.6 uM for 12 mM, 6 uM for 20 mM stock; average of 2 wells; repeat 2
metric: HepG2 viability signal, 3 uM, repeat 2 (%)

compound="O[C@H]1CC[C@@H](Cc2cc(-c3ccc(F)cc3)on2)O[C@@H]1CNC1CCCCC1 [NCGC00401034-01]" subject_of_test="HepG2-A16-CD81EGFP cells" uom=% value_observed=100.53
compound="Cn1nc(C(=O)NCC(=O)N2CCCCCCNC(=O)CC2c2ccccc2)c2ccccc21 (stereo not shown) [NCGC00467428-01]" subject_of_test="HepG2-A16-CD81EGFP cells" uom=% value_observed=101.81
compound="CN1c2cc(C(=O)Nc3ccc(C(F)(F)F)cc3)ccc2C(=O)N2CCCCC21 (stereo not shown) [NCGC00452394-01]" subject_of_test="HepG2-A16-CD81EGFP cells" uom=% value_observed=108.50
compound="Cc1nn2c(c1-c1ccccc1-c1ccccc1)N(CC1CC1)CCC2 [NCGC00420435-01]" subject_of_test="HepG2-A16-CD81EGFP cells" uom=% value_observed=45.92
compound="COc1ccc(-n2nc(C)c([C@@H]3C=C[C@@H](NCc4cccc(Cl)c4)C3)c2C)cc1 [NCGC00391691-01]" subject_of_test="HepG2-A16-CD81EGFP cells" uom=% value_observed=96.15
compound="CCOC(=O)c1ccc2c(c1)[C@@H]1C=CC[C@@H]1[C@H](c1cccc(OC)c1OC)N2 [NCGC00100279-01]" subject_of_test="HepG2-A16-CD81EGFP cells" uom=% value_observed=102.96
compound="COc1ccccc1CN1COc2ccc3c(oc(=O)c4ccccc43)c2C1 [NCGC00116378-01]" subject_of_test="HepG2-A16-CD81EGFP cells" uom=% value_observed=105.29
compound="CCOc1ccc(Cl)cc1CN(C)CC1(O)CCCNC1 (stereo not shown) [NCGC00439019-01]" subject_of_test="HepG2-A16-CD81EGFP cells" uom=% value_observed=101.33
compound="CCN1CCN(C(=O)c2ccc3c(c2)N(Cc2ccc(Cl)cc2)C(=O)c2ccccc2[S+]3[O-])CC1 (stereo not shown) [NCGC00109464-01]" subject_of_test="HepG2-A16-CD81EGFP cells" uom=% value_observed=102.35
compound="COc1ccc(-c2cc(C(F)(F)F)nc(SCCC(=O)Nc3cc(C)ccc3O)n2)cc1 [NCGC00101472-01]" subject_of_test="HepG2-A16-CD81EGFP cells" uom=% value_observed=103.42
compound="CC(C)C(=O)N1Cc2ccccc2CC2(CCCN(CC3CCCCC3)C2)C1 (stereo not shown) [NCGC00377456-01]" subject_of_test="HepG2-A16-CD81EGFP cells" uom=% value_observed=104.36
compound="CC1CCCN(Cc2c(O)ccc3c(=O)c(-c4ccccc4Cl)c(C(F)(F)F)oc23)C1 (stereo not shown) [NCGC00100585-01]" subject_of_test="HepG2-A16-CD81EGFP cells" uom=% value_observed=104.39
compound="COc1ccc(-c2ccc3ncc(Nc4ccc(C(N)=O)cc4)n3n2)cc1OC [NCGC00412552-01]" subject_of_test="HepG2-A16-CD81EGFP cells" uom=% value_observed=100.89
compound="COc1ccc(-c2noc(-c3cccn3CC(=O)Nc3ccccc3)n2)cc1F [NCGC00445500-01]" subject_of_test="HepG2-A16-CD81EGFP cells" uom=% value_observed=102.85
compound="CCN1CCN(Cc2c(O)ccc3c(=O)c(Oc4ccccc4C(C)C)c(C(F)(F)F)oc23)CC1 [NCGC00100599-01]" subject_of_test="HepG2-A16-CD81EGFP cells" uom=% value_observed=100.51
compound="COc1ccc(Cl)cc1[S+](=O)([O-])N1CCC2(CCCNC2)C1 (stereo not shown) [NCGC00431241-01]" subject_of_test="HepG2-A16-CD81EGFP cells" uom=% value_observed=95.82

Data origin, for the record: paper PMC7822874
